- test.target: CTLA4 (human)
- Sequence (chain, as listed by the source): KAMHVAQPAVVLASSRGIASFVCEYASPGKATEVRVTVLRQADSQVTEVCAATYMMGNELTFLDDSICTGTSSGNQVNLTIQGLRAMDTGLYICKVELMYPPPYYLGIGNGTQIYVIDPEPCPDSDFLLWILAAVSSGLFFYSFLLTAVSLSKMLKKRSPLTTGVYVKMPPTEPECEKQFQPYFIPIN
- test.description: flow cytometry, CHO cells stably expressing CTLA4
recorded.endpoint: Fold change to WT CD80 (fold)

Solved cases (2 shown):
- binder: "CD80 variant Q33L/E35D/M47I/L85Q IgV-Fc (Fc fusion) VIHVTKEVKEVATLSCGHNVSVEELAQTRIYWLKDKKMVLTMMSGDINIWPEYKNRTIFDITNNLSIVILALRPSDEGTYECVVQKYEKDAFKREHLAEVT"
  recorded.endpoint: "Fold change to WT CD80"
  meas.value: 0.11
- binder: "CD80 variant A26E/E35D/M43T/M47L/L85Q/R94Q IgV-Fc (Fc fusion) VIHVTKEVKEVATLSCGHNVSVEELEQTRIYWQKDKKMVLTMTSGDLNIWPEYKNRTIFDITNNLSIVILALRPSDEGTYECVVQKYEKDAFKQEHLAEVT"
  recorded.endpoint: "Fold change to WT CD80"
  meas.value: 1.56

A: CD80 variant H18Y/V20A/Q33L/E35D/M47V/Y53F IgV-Fc (Fc fusion) VIHVTKEVKEVATLSCGYNASVEELAQTRIYWLKDKKMVLTMMSGDVNIWPEFKNRTIFDITNNLSIVILALRPSDEGTYECVVLKYEKDAFKREHLAEVT
B: CD80 variant Q33L/E35D/M43I/L85Q/R94W IgV-Fc (Fc fusion) VIHVTKEVKEVATLSCGHNVSVEELAQTRIYWLKDKKMVLTMISGDMNIWPEYKNRTIFDITNNLSIVILALRPSDEGTYECVVQKYEKDAFKWEHLAEVT
When their Fold change to WT CD80 values are compared, which is larger, A or B ? Write the label of whichever entry you select.
A
